Data origin: patent US6653478B2

target: NPY2 receptors (Homo sapiens, UniProt P49146); construct: Cell Membranes from KAN-TS cells having NPY2 receptors; endogenous in cells; host or cells: KAN-TS cells (membranes); assay: Neuropeptide Y receptor binding assay (125I-PYY, KAN-TS cell membranes); details: 10 μM compound; read-out: NPY-2@10, % Inh
Sequence (P49146 whole entry): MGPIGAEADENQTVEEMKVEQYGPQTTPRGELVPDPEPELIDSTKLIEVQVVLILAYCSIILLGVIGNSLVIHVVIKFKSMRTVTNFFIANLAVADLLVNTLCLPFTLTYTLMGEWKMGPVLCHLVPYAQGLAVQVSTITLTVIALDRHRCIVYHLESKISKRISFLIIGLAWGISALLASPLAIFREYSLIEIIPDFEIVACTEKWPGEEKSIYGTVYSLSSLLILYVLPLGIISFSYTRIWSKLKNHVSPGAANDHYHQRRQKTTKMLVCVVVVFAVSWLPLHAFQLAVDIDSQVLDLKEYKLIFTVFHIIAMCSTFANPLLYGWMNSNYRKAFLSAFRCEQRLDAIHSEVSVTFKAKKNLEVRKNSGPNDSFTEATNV
assayEndpoint: inhibition at 10 µM
// return the numeric value with its unit appended

Supply recorded inhibition at 10 µM for O=C(Nc1ccccc1-c1ccccc1)N1CCC(n2c(=O)[nH]c3ccccc32)CC1 here.
12%

Supply recorded inhibition at 10 µM for CCN(CC)CCCn1c(=O)n(C2CCN(C(=S)NC(c3ccccc3)c3ccccc3)CC2)c2ccccc21 here.
81%

Supply recorded inhibition at 10 µM for COc1cc(CNC(=S)N2CCC(n3c(=O)[nH]c4ccccc43)CC2)cc(OC)c1OC here.
12%

Supply recorded inhibition at 10 µM for CC1CC(C)CN(CCCn2c(=O)n(C3CCN(C(=O)NC(c4ccccc4)c4ccccc4)CC3)c3ccccc32)C1 (centres unmarked) here.
21%

Supply recorded inhibition at 10 µM for O=c1n(Cc2ccccc2)c2ccccc2n1C1CCN(C(=S)NC(c2ccccc2)c2ccccc2)CC1 here.
0%

Supply recorded inhibition at 10 µM for O=c1n(CCCN2CCOCC2)c2ccccc2n1C1CCN(C(=S)NC(c2ccccc2)c2ccccc2)CC1 here.
73%

Supply recorded inhibition at 10 µM for O=c1[nH]c2ccccc2n1C1CCN(C(=S)NCc2ccc(Cl)cc2)CC1 here.
24%

Supply recorded inhibition at 10 µM for COc1ccccc1CNC(=S)N1CCC(n2c(=O)[nH]c3ccccc32)CC1 here.
18%

----------
Answer each item with its documented inhibition at 10 µM.
molecular target: NPY2 receptors (Homo sapiens, UniProt P49146); construct: Cell Membranes from KAN-TS cells having NPY2 receptors; endogenous in cells; host or cells: KAN-TS cells (membranes); assay: Neuropeptide Y receptor binding assay (125I-PYY, KAN-TS cell membranes); conditions: 10 μM compound; read-out: NPY-2@10, % Inh
Hi! Could you send only the number? It should be in %, unit omitted.

Supply recorded inhibition at 10 µM for O=c1[nH]c2ccccc2n1C1CCN(C(=S)NC(c2ccccc2)c2ccccc2)CC1 [Compound 1] here.
52

Supply recorded inhibition at 10 µM for CCOC(=O)C1CCN(CCCn2c(=O)n(C3CCN(C(=S)NC(c4ccccc4)c4ccccc4)CC3)c3ccccc32)CC1 [Compound 83] here.
79

Supply recorded inhibition at 10 µM for O=c1n(CCCN2CCCC2)c2ccccc2n1C1CCN(C(=S)NC(c2ccccc2)c2ccccc2)CC1 [Compound 73] here.
89

Supply recorded inhibition at 10 µM for CC(=O)NCCNC(=O)C(Cc1ccccc1)NC(=S)N1CCC(n2c(=O)[nH]c3ccccc32)CC1 (stereo not shown) [Compound 44] here.
9

----------
biological target: NPY2 receptors (Homo sapiens, UniProt P49146); construct: Cell Membranes from KAN-TS cells having NPY2 receptors; endogenous in cells; host or cells: KAN-TS cells (membranes); experiment: Neuropeptide Y receptor binding assay (125I-PYY, KAN-TS cell membranes); settings: 10 μM compound; read-out: NPY-2@10, % Inh
Criterion: inhibition at 10 µM meeting or surpassing 20%. Met: TRUE. Not met: FALSE.

Evaluate O=C(NC(c1ccccc1)c1ccccc1)N1CCC(n2c(=O)n(CCCN3CCCCC3)c3ccccc32)CC1 : inhibition at 10 µM at minimum 20%?
FALSE

Evaluate COc1ccc(NC(=S)N2CCC(n3c(=O)[nH]c4ccccc43)CC2)cc1 : inhibition at 10 µM at minimum 20%?
FALSE

Evaluate O=c1[nH]c2ccccc2n1C1CCN(C(=S)NCc2ccc(Cl)cc2Cl)CC1 : inhibition at 10 µM at minimum 20%?
FALSE

Evaluate CC(Cc1ccc(Cl)cc1)NC(=S)N1CCC(n2c(=O)[nH]c3ccccc32)CC1 (centres unmarked) : inhibition at 10 µM at minimum 20%?
TRUE

Evaluate CN1CCCC1CCn1c(=O)n(C2CCN(C(=O)NC(c3ccccc3)c3ccccc3)CC2)c2ccccc21 (centres unmarked) : inhibition at 10 µM at minimum 20%?
TRUE

Evaluate O=C(O)CCn1c(=O)n(C2CCN(C(=S)NC(c3ccccc3)c3ccccc3)CC2)c2ccccc21 : inhibition at 10 µM at minimum 20%?
TRUE

Evaluate CCN(CC)CCn1c(=O)n(C2CCN(C(=S)NC(Cc3ccccc3)C(=O)O)CC2)c2ccccc21 (centres unmarked) : inhibition at 10 µM at minimum 20%?
FALSE

Evaluate CN1CCN(C(=O)C(Cc2ccccc2)NC(=S)N2CCC(n3c(=O)[nH]c4ccccc43)CC2)CC1 (centres unmarked) : inhibition at 10 µM at minimum 20%?
FALSE

----------
Answer each item with its documented inhibition at 1 µM.
molecular target: human V1a receptor (Homo sapiens); assay: V1a binding assay (3H-AVP displacement, HEK-293 membranes); set-up: expressed in transfected cells; host or cells: HEK-293 (membranes); details: 1.0 μM compound; read-out: V1a@1.0, % Inh
Sequence (P37288 whole entry): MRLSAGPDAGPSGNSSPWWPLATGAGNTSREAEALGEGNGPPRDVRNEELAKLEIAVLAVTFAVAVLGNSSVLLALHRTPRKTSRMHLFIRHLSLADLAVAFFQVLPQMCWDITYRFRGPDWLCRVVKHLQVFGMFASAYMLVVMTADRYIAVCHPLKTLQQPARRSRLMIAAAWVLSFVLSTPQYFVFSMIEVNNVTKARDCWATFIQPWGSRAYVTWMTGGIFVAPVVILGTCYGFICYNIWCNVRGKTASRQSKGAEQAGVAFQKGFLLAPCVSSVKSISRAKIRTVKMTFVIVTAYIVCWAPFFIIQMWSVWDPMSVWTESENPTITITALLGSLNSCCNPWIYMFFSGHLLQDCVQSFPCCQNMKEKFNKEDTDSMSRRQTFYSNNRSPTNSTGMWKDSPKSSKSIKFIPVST
Hi! Could you send only the number? It should be in %, unit omitted.

Specify the recorded inhibition at 1 µM for O=c1[nH]c2ccccc2n1C1CCN(C(=S)NCCc2ccc(Cl)cc2)CC1 , system: human V1a receptor (Homo sapiens).
21

Specify the recorded inhibition at 1 µM for O=c1n(CCCN2CCCCC2)c2ccccc2n1C1CCN(C(=S)Nc2ccc(N3CCOCC3)cc2)CC1 , system: human V1a receptor (Homo sapiens).
0

Specify the recorded inhibition at 1 µM for COc1cc(NC(=S)N2CCC(n3c(=O)[nH]c4ccccc43)CC2)cc(OC)c1OC , system: human V1a receptor (Homo sapiens).
20

Specify the recorded inhibition at 1 µM for O=c1[nH]c2ccccc2n1C1CCN(C(=S)NCc2ccc(Cl)cc2)CC1 , system: human V1a receptor (Homo sapiens).
22

----------
target: human V2 receptor (Homo sapiens, UniProt P30518); assay: V2 binding assay (3H-AVP displacement, HEK-293 membranes); set-up: expressed in transfected cells; host or cells: HEK-293 (membranes); settings: 1.0 μM compound; read-out: V2@1.0, % Inh
Sequence (P30518 whole entry): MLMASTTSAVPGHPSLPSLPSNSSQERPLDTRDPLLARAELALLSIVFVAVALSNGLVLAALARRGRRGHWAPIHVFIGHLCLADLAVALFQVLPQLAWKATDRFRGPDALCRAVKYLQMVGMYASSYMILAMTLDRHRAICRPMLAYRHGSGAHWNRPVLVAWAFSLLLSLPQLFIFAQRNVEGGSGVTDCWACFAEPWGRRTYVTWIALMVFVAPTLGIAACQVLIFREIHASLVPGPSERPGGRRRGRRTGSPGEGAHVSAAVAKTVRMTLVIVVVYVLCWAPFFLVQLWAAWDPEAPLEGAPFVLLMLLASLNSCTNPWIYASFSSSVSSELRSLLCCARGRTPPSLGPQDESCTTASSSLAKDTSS
assayEndpoint: inhibition at 1 µM

Supply recorded inhibition at 1 µM for Cn1c(=O)n(C2CCN(C(=S)NC(c3ccccc3)c3ccccc3)CC2)c2ccccc21 here.
51%

Supply recorded inhibition at 1 µM for CCN(CC)CCn1c(=O)n(C2CCN(C(=S)NC(Cc3ccccc3)C(=O)O)CC2)c2ccccc21 (stereo not shown) here.
10%

Supply recorded inhibition at 1 µM for O=c1n(CCCN2CCCCC2)c2ccccc2n1C1CCN(C(=S)NC2c3ccccc3-c3ccccc32)CC1 here.
0%

Supply recorded inhibition at 1 µM for O=c1[nH]c2ccccc2n1C1CCN(C(=S)NCCc2cccc(Cl)c2)CC1 here.
12%

----------
Target: human V1b receptor (Homo sapiens)
Sequence (P47901 1-424): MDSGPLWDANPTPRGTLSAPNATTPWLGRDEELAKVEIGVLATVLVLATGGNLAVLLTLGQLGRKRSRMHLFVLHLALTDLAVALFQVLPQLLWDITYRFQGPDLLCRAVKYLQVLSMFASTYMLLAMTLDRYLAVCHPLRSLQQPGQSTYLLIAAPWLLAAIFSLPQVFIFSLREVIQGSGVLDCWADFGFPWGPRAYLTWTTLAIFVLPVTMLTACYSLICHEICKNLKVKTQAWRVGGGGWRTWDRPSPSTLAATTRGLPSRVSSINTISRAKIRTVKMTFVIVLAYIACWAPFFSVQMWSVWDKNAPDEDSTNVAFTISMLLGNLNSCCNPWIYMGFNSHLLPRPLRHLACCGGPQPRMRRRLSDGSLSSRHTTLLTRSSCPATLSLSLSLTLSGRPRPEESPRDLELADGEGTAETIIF
Assay: V1b binding assay (3H-AVP displacement, HEK-293 membranes)
Set-up: expressed in transfected cells; host or cells: HEK-293 (membranes)
Conditions: 1.0 μM compound; read-out: V1b@1.0, % Inh
assayEndpoint: inhibition at 1 µM (%)
Hi! Could you send only the number? It should be in %, unit omitted.

Supply recorded inhibition at 1 µM for CCCN(CCC)CCCn1c(=O)n(C2CCN(C(=S)NC(c3ccccc3)c3ccccc3)CC2)c2ccccc21 [Compound 79] here.
48

Supply recorded inhibition at 1 µM for O=C1CCCCN1CCCn1c(=O)n(C2CCN(C(=S)NC(c3ccccc3)c3ccccc3)CC2)c2ccccc21 [Compound 176] here.
31

Supply recorded inhibition at 1 µM for CCN(CC)CCn1c(=O)n(C2CCN(C(=O)Nc3ccccc3C)CC2)c2ccccc21 [Compound 92] here.
5

Supply recorded inhibition at 1 µM for O=c1n(Cc2ccc(-c3csnn3)cc2)c2ccccc2n1C1CCN(C(=S)NC(c2ccccc2)c2ccccc2)CC1 [Compound 167] here.
1

----------
target: human V1b receptor (Homo sapiens); test: V1b binding assay (3H-AVP displacement, HEK-293 membranes); set-up: expressed in transfected cells; host or cells: HEK-293 (membranes); details: 10 μM compound; read-out: V1b % Inh @10
assayEndpoint: inhibition at 10 µM (%)
Hi! Could you send only the number? It should be in %, unit omitted.

Supply recorded inhibition at 10 µM for Cc1ccccc1NC(=O)N1CCC(n2c(=O)[nH]c3ccccc32)CC1 here.
3

Supply recorded inhibition at 10 µM for O=c1[nH]c2ccccc2n1C1CCN(C(=S)NCc2ccc(Cl)cc2)CC1 here.
3

Supply recorded inhibition at 10 µM for O=C(NCc1ccccc1)N1CCC(n2c(=O)[nH]c3ccccc32)CC1 here.
29

Supply recorded inhibition at 10 µM for CCN(CC)CCn1c(=O)n(C2CCN(C(=S)NC(Cc3ccccc3)C(=O)O)CC2)c2ccccc21 (centres unmarked) here.
16

Supply recorded inhibition at 10 µM for CC(=O)NCCCn1c(=O)n(C2CCN(C(=S)NC(c3ccccc3)c3ccccc3)CC2)c2ccccc21 here.
25

Supply recorded inhibition at 10 µM for O=c1[nH]c2ccccc2n1C1CCN(C(=S)NCC(c2ccccc2)c2ccccc2)CC1 here.
1

Supply recorded inhibition at 10 µM for O=c1[nH]c2ccccc2n1C1CCN(C(=S)NCc2cccc3ccccc23)CC1 here.
7

Supply recorded inhibition at 10 µM for NCCCCn1c(=O)n(C2CCN(C(=S)NC(c3ccccc3)c3ccc(Cl)cc3)CC2)c2ccccc21 (centres unmarked) here.
51

Supply recorded inhibition at 10 µM for COC(=O)C(Cc1ccccc1)NC(=S)N1CCC(n2c(=O)n(CCCNC(=O)OCc3ccccc3)c3ccccc32)CC1 (centres unmarked) here.
13

Supply recorded inhibition at 10 µM for O=c1[nH]c2ccccc2n1C1CCN(C(=S)Nc2ccccc2)CC1 here.
0

Supply recorded inhibition at 10 µM for O=c1[nH]c2ccccc2n1C1CCN(C(=S)NCc2ccc3c(c2)OCO3)CC1 here.
15

Supply recorded inhibition at 10 µM for N=C(N)NCCCn1c(=O)n(C2CCN(C(=S)NC(c3ccccc3)c3ccccc3)CC2)c2ccccc21 here.
62

Supply recorded inhibition at 10 µM for COc1ccc(NC(=S)N2CCC(n3c(=O)[nH]c4ccccc43)CC2)cc1 here.
8

Supply recorded inhibition at 10 µM for O=c1[nH]c2ccccc2n1C1CCN(C(=S)NC(c2ccccc2)c2ccc(Cl)cc2)CC1 (centres unmarked) here.
13

Supply recorded inhibition at 10 µM for O=C(O)CCn1c(=O)n(C2CCN(C(=S)NC(c3ccccc3)c3ccccc3)CC2)c2ccccc21 here.
22

Supply recorded inhibition at 10 µM for COc1ccc(C(NC(=S)N2CCC(n3c(=O)[nH]c4ccccc43)CC2)c2ccc(OC)cc2)cc1 here.
11

Supply recorded inhibition at 10 µM for CC(Cc1ccc(Cl)cc1)NC(=S)N1CCC(n2c(=O)[nH]c3ccccc32)CC1 (centres unmarked) here.
0

Supply recorded inhibition at 10 µM for CN(C)c1ccc(CNC(=S)N2CCC(n3c(=O)[nH]c4ccccc43)CC2)cc1 here.
0

Supply recorded inhibition at 10 µM for O=c1[nH]c2ccccc2n1C1CCN(C(=S)NCCc2ccc(Cl)cc2)CC1 here.
0

Supply recorded inhibition at 10 µM for O=C1c2ccccc2C(=O)N1CCCn1c(=O)n(C2CCN(C(=S)NC(c3ccccc3)c3ccccc3)CC2)c2ccccc21 here.
18

Supply recorded inhibition at 10 µM for O=c1[nH]c2ccccc2n1C1CCN(C(=S)NCCN2CCOCC2)CC1 here.
0

Supply recorded inhibition at 10 µM for CC(NC(=O)N1CCC(n2c(=O)[nH]c3ccccc32)CC1)c1cccc2ccccc12 (stereo in doubt) here.
11

Supply recorded inhibition at 10 µM for COc1cc(NC(=S)N2CCC(n3c(=O)[nH]c4ccccc43)CC2)cc(OC)c1OC here.
0

Supply recorded inhibition at 10 µM for O=c1[nH]c2ccccc2n1C1CCN(C(=S)NC(c2ccccc2)c2ccccc2)CC1 here.
0

Supply recorded inhibition at 10 µM for O=c1[nH]c2ccccc2n1C1CCN(C(=S)NC2c3ccccc3-c3ccccc32)CC1 here.
9

Supply recorded inhibition at 10 µM for O=C(Nc1ccccc1-c1ccccc1)N1CCC(n2c(=O)[nH]c3ccccc32)CC1 here.
18

Supply recorded inhibition at 10 µM for O=c1[nH]c2ccccc2n1C1CCN(C(=S)NCCc2cccc(Cl)c2)CC1 here.
0

Supply recorded inhibition at 10 µM for CC(C)(C)OC(=O)NCCNC(=O)C(Cc1ccccc1)NC(=S)N1CCC(n2c(=O)[nH]c3ccccc32)CC1 (centres unmarked) here.
26

Supply recorded inhibition at 10 µM for NCCCn1c(=O)n(C2CCN(C(=O)NC(c3ccccc3)c3ccccc3)CC2)c2ccccc21 here.
30

Supply recorded inhibition at 10 µM for COc1cc(CNC(=S)N2CCC(n3c(=O)[nH]c4ccccc43)CC2)cc(OC)c1OC here.
0

Supply recorded inhibition at 10 µM for COC(=O)C(Cc1ccccc1)NC(=S)N1CCC(n2c(=O)n(CCCN3C(=O)c4ccccc4C3=O)c3ccccc32)CC1 (centres unmarked) here.
19

Supply recorded inhibition at 10 µM for CN(C)CCCn1c(=O)n(C2CCN(C(=S)NC(c3ccccc3)c3ccccc3)CC2)c2ccccc21 here.
88
